- assay-target: biotinylated C3b (UniProt P01024)
- method-summary: SPR, Biacore 3000; biotinylated C3b on streptavidin chip, peptide injected; 1:1 fit
Bridge positions count the residues as written; N and C are the ends. Square brackets hold non-standard residues; d marks the D form. Trp(1-Me) = Cn1cc(C[C@H](N)C(=O)O)c2ccccc21; Sar = CNCC(=O)O

>  <binder>
Ac-ICV[Trp(1-Me)]QDW[Sar]AHRCL-NH2 (disulfide 2-12; SMILES CC[C@H](C)[C@H](NC(C)=O)C(=O)N[C@H]1CSSC[C@@H](C(=O)N[C@@H](CC(C)C)C(N)=O)NC(=O)[C@H](CCCNC(=N)N)NC(=O)[C@H](Cc2c[nH]cn2)NC(=O)[C@H](C)NC(=O)CN(C)C(=O)[C@H](Cc2c[nH]c3ccccc23)NC(=O)[C@H](CC(=O)O)NC(=O)[C@H](CCC(N)=O)NC(=O)[C@H](Cc2cn(C)c3ccccc23)NC(=O)[C@H](C(C)C)NC1=O) [Ac-Ic[CV(1-MeW)QDW(N-MeG)AHRC]L-NH2]

>  <kon>
1.3e+06 M⁻¹ s⁻¹

$$$$

Where these numbers come from: patent US20120178694A1
